Target: T1, ErbB4 (Rattus norvegicus, UniProt Q62956)
T1 construct: forming the ErbB2/ErbB4 complex in cardiomyocytes and the ErbB2/ErbB3 complex in Schwann cells; endogenous in cells; host or cells: primary neonatal rat cardiomyocytes (Sprague Dawley pups, 0 to 4 days old)
T1 sequence (Q62956 26-1308): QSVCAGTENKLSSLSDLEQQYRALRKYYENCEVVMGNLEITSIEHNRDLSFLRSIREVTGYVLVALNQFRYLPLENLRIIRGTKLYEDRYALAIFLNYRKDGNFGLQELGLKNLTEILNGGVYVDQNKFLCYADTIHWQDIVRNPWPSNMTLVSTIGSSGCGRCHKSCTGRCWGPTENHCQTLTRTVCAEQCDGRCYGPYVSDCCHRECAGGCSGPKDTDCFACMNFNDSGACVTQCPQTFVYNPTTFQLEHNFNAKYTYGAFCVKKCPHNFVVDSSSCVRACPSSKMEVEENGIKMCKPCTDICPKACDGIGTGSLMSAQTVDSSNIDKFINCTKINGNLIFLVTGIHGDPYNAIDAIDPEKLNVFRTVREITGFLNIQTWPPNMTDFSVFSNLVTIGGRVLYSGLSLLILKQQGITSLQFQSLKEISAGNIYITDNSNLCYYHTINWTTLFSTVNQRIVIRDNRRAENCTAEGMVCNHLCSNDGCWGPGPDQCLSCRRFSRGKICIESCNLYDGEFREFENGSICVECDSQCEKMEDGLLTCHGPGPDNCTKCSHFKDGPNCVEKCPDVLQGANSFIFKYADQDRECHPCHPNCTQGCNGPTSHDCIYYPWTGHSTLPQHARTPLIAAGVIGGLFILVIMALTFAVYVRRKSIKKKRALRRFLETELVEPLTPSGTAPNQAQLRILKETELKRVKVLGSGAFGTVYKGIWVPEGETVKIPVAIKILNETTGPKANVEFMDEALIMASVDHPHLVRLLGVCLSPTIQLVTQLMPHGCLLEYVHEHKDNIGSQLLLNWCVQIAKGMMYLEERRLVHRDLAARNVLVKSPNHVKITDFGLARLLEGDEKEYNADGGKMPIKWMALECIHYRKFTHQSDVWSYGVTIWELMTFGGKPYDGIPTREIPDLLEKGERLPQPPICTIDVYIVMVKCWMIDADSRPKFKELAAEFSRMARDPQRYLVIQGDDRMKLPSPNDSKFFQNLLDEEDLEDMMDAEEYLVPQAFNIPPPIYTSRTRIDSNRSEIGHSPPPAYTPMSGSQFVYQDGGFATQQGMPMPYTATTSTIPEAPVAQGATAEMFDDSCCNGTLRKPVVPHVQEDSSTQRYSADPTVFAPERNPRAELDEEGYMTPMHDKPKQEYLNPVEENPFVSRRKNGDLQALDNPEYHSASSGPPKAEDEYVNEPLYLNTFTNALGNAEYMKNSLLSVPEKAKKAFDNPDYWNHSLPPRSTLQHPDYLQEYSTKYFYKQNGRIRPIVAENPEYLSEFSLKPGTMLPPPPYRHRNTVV
T1 sequence (P06494 23-1257 partner): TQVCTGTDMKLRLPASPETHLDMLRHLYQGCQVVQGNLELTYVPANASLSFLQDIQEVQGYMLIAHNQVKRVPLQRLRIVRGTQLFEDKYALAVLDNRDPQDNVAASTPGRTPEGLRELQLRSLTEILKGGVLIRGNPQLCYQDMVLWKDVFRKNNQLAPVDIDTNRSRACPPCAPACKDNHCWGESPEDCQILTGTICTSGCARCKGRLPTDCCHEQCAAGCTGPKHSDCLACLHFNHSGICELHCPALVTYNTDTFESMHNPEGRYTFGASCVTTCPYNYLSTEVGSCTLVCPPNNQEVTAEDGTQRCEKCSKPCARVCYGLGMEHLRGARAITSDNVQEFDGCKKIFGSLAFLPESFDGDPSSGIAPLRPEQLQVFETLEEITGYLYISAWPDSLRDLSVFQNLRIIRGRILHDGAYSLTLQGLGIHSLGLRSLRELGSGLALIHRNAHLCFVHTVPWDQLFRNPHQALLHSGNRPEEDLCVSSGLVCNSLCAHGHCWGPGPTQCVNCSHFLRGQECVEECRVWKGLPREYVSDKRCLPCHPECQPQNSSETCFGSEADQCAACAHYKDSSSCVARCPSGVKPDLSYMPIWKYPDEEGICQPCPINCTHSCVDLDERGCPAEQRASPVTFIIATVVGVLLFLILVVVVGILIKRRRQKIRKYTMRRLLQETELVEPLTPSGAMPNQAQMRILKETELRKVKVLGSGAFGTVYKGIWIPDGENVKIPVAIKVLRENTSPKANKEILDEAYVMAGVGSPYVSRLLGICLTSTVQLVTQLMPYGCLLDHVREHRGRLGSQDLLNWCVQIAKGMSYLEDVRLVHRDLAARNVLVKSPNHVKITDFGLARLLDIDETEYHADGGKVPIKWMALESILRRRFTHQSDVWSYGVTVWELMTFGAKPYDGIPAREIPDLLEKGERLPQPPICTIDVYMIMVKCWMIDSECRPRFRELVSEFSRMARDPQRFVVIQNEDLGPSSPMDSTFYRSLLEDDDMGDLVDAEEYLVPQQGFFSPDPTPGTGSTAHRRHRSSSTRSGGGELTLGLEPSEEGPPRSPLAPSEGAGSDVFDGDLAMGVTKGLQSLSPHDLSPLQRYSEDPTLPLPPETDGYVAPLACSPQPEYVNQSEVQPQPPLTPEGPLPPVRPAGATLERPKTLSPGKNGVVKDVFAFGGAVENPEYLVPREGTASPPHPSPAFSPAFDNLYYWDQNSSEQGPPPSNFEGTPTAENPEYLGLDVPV
Experiment: In vitro phosphorylation of Akt in neonatal rat cardiomyocytes
Format: cell-based
Settings: Akt (Serine 473) phosphorylation, neonatal rat cardiomyocytes, 15 minutes treatment; read-out: Cardiomyocyte (CM) (ErbB4) Avg EC50
READOUT LABEL: EC50 (nM)
Write the answer as a number in nM, unit excluded.

{"MOLECULE": "huNRG1(S177-F229)(NRGE1C) (D48T_F49Q_M50I) 6xHis: 6xHis-tagged NRG1 variant SEQ ID NO:118 (protein, 6xHis tag; huNRG1(S177-F229)(NRGE1C) (D48T_F49Q_M50I) 6xHis) SHLVKCGEKHKSFCVNGGECFMIEGPSNPSRYLCKCPNEFTGDRCQETQIASFGGGGEGGGGAGGGGHHHHHH", "EC50 (nM)": 0.712}

Shift focus to the following entry.
Endpoint output: EC50 of huNRG1(S177-F229)(NRGE1C) (E47K_D48T_F49S_M50L) 6xHis: 6xHis-tagged NRG1 variant SEQ ID NO:120 (protein, 6xHis tag; huNRG1(S177-F229)(NRGE1C) (E47K_D48T_F49S_M50L) 6xHis) SHLVKCGEKHKSFCVNGGECFMIEGPSNPSRYLCKCPNEFTGDRCQKTSLASFGGGGEGGGGAGGGGHHHHHH . Value?
0.825
